Target: Influenza A virus M2 proton channel (A/TW/4845/1999 H1N1)
Test: M2 proton channel binding, NMR based, influenza A virus H1N1 strain (AID 1549)
Conditions: NMR binding screen, M2 protein
Calls of active or inactive are those of the source. The rule behind the calls is not given here.
Below, each of the molecules is paired with its reported Kd value.

CN(C(N)=O)C1(C)CCS(=O)(=O)C1 (configuration not stated)    > 4 mM (inactive)
O=C1NC(=S)NC(=O)C1=Cc1ccco1    > 4 mM (inactive)
O=C(c1nc2ncccn2n1)N1CCc2ccccc2C1    > 4 mM (inactive)
O=C1NC(=O)C2C3C=CC(O3)C12 (configuration not stated)    > 4 mM (inactive)
C[C@H](CCC(=O)O)[C@H]1CCC2C3C(CC[C@@]21C)[C@@]1(C)CC[C@@H](O)C[C@H]1C[C@@H]3O (some centres not stated)    > 4 mM (inactive)

State its Kd for this molecule: `CS(=O)(=O)Nc1ccc(C(=O)N2CCCCC2)cc1`
> 4 mM (inactive)

State its Kd for this molecule: CC(C)c1ccc2c(c1)CCC1C(C)(C(N)=O)CCCC21C (configuration not stated)
> 4 mM (inactive)

State its Kd for this molecule: `O=C(Nc1ccc2c(c1)OCO2)c1cccs1`
> 4 mM (inactive)

State its Kd for this molecule: `COc1ccc(S(N)(=O)=O)cc1`
> 4 mM (inactive)

State its Kd for this molecule: `COc1ccc([C@H]2COc3c(ccc(O)c3OC)C2)c(OC)c1O`
> 4 mM (inactive)

State its Kd for this molecule: `Nc1nc2ccc(N3CCOCC3)cc2s1`
> 4 mM (inactive)

State its Kd for this molecule: `O=C(NC1=NCCS1)c1ccc2snnc2c1`
> 4 mM (inactive)
